These data points were gathered from PubChem BioAssay (EPA / NIEHS).

read-out: Cellular tumor antigen p53 (Homo sapiens) (UniProt P04637); experiment: LTEA_HepaRG_TP53: Life Technologies and Expression Analysis (LTEA) Assay for Tumor Protein P53 (TP53) using HepaRG (AID 2283537); settings: mRNA level, 48 h; actives raise or lower the signal
Sequence (P04637 whole entry, looked up): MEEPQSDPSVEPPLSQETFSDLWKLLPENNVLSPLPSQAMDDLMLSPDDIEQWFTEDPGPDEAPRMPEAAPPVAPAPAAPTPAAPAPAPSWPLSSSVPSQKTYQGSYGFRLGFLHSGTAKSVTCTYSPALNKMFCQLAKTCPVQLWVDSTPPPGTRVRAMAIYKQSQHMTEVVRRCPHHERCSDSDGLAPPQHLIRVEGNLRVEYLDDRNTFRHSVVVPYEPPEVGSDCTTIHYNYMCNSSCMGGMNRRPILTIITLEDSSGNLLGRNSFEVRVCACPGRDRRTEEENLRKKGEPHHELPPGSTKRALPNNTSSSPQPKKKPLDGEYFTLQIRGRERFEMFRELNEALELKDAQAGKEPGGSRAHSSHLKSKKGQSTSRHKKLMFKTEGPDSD
The source made the active and inactive calls. Rule for the calls: active = hit-call score of the fitted dose curve at least 0.9, where 1 is the maximum; inactive = score below 0.9.
Labels: active, inactive

COMPOUND	CLASS_NAME
CCCOC(=O)c1ccc(O)cc1	inactive
c1ccc2cc3c(ccc4ccccc43)cc2c1	inactive
O=C(O)Cc1cc(I)c(Oc2cc(I)c(O)c(I)c2)c(I)c1	active
CCC(C)(C)C1CCC(O)CC1 (stereo unspecified)	inactive
CN1CCN(c2ccccc2/C=C2\SCCN(c3ccc(Cl)c(Cl)c3)C2=O)CC1	inactive
NC(=O)N(O)[C@@H]1C=C[C@H](Oc2cccc(Oc3ccc(F)cc3)c2)C1	active
O=C(OCCOCCOC(=O)c1ccccc1)c1ccccc1	inactive
O=[N+]([O-])c1ccc(O)cc1	inactive
Oc1cccc(O)c1	inactive
C#C[C@]1(O)CC[C@H]2[C@@H]3CCC4=CC(=O)CC[C@@H]4[C@H]3CC[C@@]21C	inactive
C[C@@H]1C[C@H]2[C@@H]3CCC4=CC(=O)C=C[C@]4(C)[C@@]3(F)[C@@H](O)C[C@]2(C)[C@@]1(O)C(=O)COP(=O)(O)O	inactive
C=C(C)C(=O)OCCC(F)(F)C(F)(F)C(F)(F)C(F)(F)C(F)(F)C(F)(F)F	inactive
CC(O)CO (stereo unspecified)	inactive
CCCCCCCCC(=O)O	inactive
c1ccc2c(c1)Cc1ccccc1-2	inactive
COCC(C)O (stereo unspecified)	inactive
OC1CCCCC1	inactive
CC(C)(C)c1cccc(C(C)(C)C)c1O	inactive
CC1=C(/C=C/C(C)=C/C=C/C(C)=C/C(=O)O)C(C)(C)CCC1	inactive
COc1ccc([N+](=O)[O-])cc1N	inactive
CCCCC(CC)COC(=O)CCCCC(=O)OCC(CC)CCCC (stereo unspecified)	inactive
Cc1oc(-c2ccccc2)nc1CCOc1ccc(C[C@H](Nc2ccccc2C(=O)c2ccccc2)C(=O)O)cc1	active
Nc1cccc2c(N)cccc12	inactive
CCc1nn(C2CCCCC2)c2cc(C3(C#N)CCC(C(=O)O)CC3)ccc12 (stereo unspecified)	active
CC(C)(C)CC(C)(C)c1ccc(O)c(-n2nc3ccccc3n2)c1	inactive
OCCC(F)(F)C(F)(F)C(F)(F)C(F)(F)C(F)(F)C(F)(F)F	inactive
